# Assay Overview: protein stability index of a GFP-peptide fusion (yeast GPS) (PSI 1-4); higher = more stable; sorted into four equal gates, so the index is relative within each strain
# Stated Conditions: san1∆
protein stability index reference
Property Name: protein stability index

- Seq Text: "IDEVFSWYLNTFDGIRM [GRR1]"
  Meas Value: 2.14
- Seq Text: "GTSLKVAPVSEIVNMVP [SIR2]"
  Meas Value: 2.7
- Seq Text: "GFSMNNPYNIVPQGKIV [SMC3]"
  Meas Value: 3.08
- Seq Text: "HIGHSALKGPVRDKLDE [DPB4]"
  Meas Value: 3.11
- Seq Text: "DDLIAEENPIMQTALRR [QCR7]"
  Meas Value: 2.92
- Seq Text: "LLLSPDQWYCIDKLEDL [ITC1]"
  Meas Value: 3.22
- Seq Text: "NYIYAGYENGMLAQWDL [RPN14]"
  Meas Value: 3.06
- Seq Text: "KDMLYSGITGECLQAYI [RET1]"
  Meas Value: 2.5
- Seq Text: "EIYRISFQLSKIRRAAR [RPS9A]"
  Meas Value: 2.3
- Seq Text: "PLVGKPKTELTKGDSTP [YAR002W/NUP60]"
  Meas Value: 2.46
- Seq Text: "DNFSPHQNVIIGSNGSG [SMC3]"
  Meas Value: 2.78
- Seq Text: "RKANREEKLKANKEKKK [RPL24A]"
  Meas Value: 2.15
- Seq Text: "VGEEETSQKMKKMVYVL [SRP54]"
  Meas Value: 3.31
- Seq Text: "HKHALHGTAKALAAAKK [RPL29]"
  Meas Value: 2.24
